SYSTEM UNDER TEST: hTRPM8 channel (Homo sapiens)
Sequence (Q7Z2W7 whole entry): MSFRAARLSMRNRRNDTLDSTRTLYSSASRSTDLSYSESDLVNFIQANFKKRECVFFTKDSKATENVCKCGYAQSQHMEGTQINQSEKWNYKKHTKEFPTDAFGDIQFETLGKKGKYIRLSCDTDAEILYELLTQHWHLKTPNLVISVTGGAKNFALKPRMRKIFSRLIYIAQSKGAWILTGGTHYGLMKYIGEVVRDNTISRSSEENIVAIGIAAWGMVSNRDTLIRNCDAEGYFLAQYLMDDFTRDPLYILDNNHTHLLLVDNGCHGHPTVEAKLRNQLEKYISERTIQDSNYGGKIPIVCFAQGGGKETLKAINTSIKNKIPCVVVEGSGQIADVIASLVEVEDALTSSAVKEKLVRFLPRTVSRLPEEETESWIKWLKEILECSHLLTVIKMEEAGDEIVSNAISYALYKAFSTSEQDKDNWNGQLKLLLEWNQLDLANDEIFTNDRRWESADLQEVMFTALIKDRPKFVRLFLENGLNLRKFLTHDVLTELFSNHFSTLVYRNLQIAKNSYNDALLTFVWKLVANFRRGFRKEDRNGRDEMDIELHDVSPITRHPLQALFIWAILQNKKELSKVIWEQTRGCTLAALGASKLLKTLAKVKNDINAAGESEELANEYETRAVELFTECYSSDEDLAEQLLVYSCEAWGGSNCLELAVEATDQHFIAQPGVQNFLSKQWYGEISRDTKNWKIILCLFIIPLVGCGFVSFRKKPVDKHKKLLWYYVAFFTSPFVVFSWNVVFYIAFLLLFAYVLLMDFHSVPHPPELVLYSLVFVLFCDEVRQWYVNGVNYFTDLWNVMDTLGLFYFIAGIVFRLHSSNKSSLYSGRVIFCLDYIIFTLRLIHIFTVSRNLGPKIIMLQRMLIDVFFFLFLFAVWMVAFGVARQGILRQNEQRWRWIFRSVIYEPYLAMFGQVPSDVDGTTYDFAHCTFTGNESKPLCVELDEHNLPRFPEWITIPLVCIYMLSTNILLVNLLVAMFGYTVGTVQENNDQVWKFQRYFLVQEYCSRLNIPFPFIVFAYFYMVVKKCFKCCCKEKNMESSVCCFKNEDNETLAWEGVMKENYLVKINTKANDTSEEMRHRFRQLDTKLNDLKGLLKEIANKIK
PROCEDURE TEXT: TRPM8 receptor assay, calcium entry (Fluo-8, FLIPR) in transfected CHO cells
CONDITIONS: CHO cells transfected with hTRPM8; Fluo-8 calcium kit, FLIPR
Mark T for EC50 under 1000 nM, F if at or over.

- COC(=O)CNC(=O)[C@@H]1C[C@H](C)CC[C@H]1C(C)C: T
- CCOC(=O)[C@@H](C)NC(=O)[C@@H]1C[C@H](C)CC[C@H]1C(C)C: T
- CC(C)OC(=O)[C@@H](C)NC(=O)[C@@H]1C[C@H](C)CC[C@H]1C(C)C: T
- CCCCOC(=O)CNC(=O)[C@@H]1C[C@H](C)CC[C@H]1C(C)C: F
- COC(=O)C(C)NC(=O)[C@@H]1C[C@H](C)CC[C@H]1C(C)C (stereo partly shown): T
- CCOC(=O)[C@H](C)NC(=O)[C@@H]1C[C@H](C)CC[C@H]1C(C)C: F

* * *

SYSTEM UNDER TEST: hTRPM8 channel (Homo sapiens)
Construct: host or cells: CHO cells
PROCEDURE TEXT: TRPM8 receptor assay, calcium entry (Fluo-8, FLIPR) in transfected CHO cells
Type: cell-based
CONDITIONS: ratio of TRPM8 EC50 values, menthol = 1.0
Description: FIG. 4. Agonist activities of TRPM8 analogs. […] The relative fluorescence (RF) unit on the ordinate represents calcium entry into transfected cells. […] The structures of these compounds are in Table 4. The applicant has synthesized and examined a series of p-menthanecarboxamides conjugated to amino acid esters. […] This class of molecules is called N-alkylcarbonyl-amino acid esters. […] These in vitro effects were measured in CHO cells transfected with the hTRPM8 channel. […]
# Potency Relative to L-menthol listing for each entry below
PROPERTY MEASURED: Potency Relative to L-menthol

* COC(=O)CNC(=O)[C@@H]1C[C@H](C)CC[C@H]1C(C)C [GlyOMe] | 7.6
* CCOC(=O)CNC(=O)[C@@H]1C[C@H](C)CC[C@H]1C(C)C [GlyOEt, reference compound] | 10.6
* CCOC(=O)[C@H](C)NC(=O)[C@@H]1C[C@H](C)CC[C@H]1C(C)C [L-Ala-OEt] | 0.2
* CCCCOC(=O)C(C)NC(=O)[C@@H]1C[C@H](C)CC[C@H]1C(C)C (stereo partly drawn) [D-Ala-OnBu] | 3.7
* CCOC(=O)[C@@H](C)NC(=O)[C@@H]1C[C@H](C)CC[C@H]1C(C)C [D-Ala-OEt] | 14.0
